# Test system: Staphylococcus aureus
# test: Antibacterial activity against methicillin-resistant Staphylococcus aureus NR10194 measured after 16 to 18 hrs
# Format: functional
# statedConditions: time 16-18 hrs
// MIC lookup, one value per entry
measure: MIC

INSERT INTO assay_data (smilesstr, measure, datavalue) VALUES
  ('C[C@@H](O)[C@H]1C(=O)N2C(C(=O)O)=C(S[C@@H]3CN[C@H](C(=O)N(C)C)C3)[C@H](C)[C@H]12', 'MIC', '1 µg/mL'),
  ('Clc1ccc2[nH]c(-c3ccc(Nc4nc(-c5ccccc5)nc5ccccc45)cc3)nc2c1', 'MIC', '8 µg/mL'),
  ('c1ccc(-c2nc(Nc3ccc(-c4nc5ccccc5[nH]4)cc3)c3ccccc3n2)cc1', 'MIC', '8 µg/mL'),
  ('COc1cccc(OC)c1C(=O)N[C@@H]1C(=O)N2[C@@H]1SC(C)(C)[C@@H]2C(=O)O', 'MIC', '32 µg/mL'),
  ('C[C@H]1COc2c(N3CCN(C)CC3)c(F)cc3c(=O)c(C(=O)O)cn1c23.C[C@H]1COc2c(N3CCN(C)CC3)c(F)cc3c(=O)c(C(=O)O)cn1c23.O', 'MIC', '0.125 µg/mL'),
  ('CCCCCCCCCC(=O)N[C@@H](Cc1c[nH]c2ccccc12)C(=O)N[C@H](CC(N)=O)C(=O)N[C@@H](CC(=O)O)C(=O)N[C@@H]1C(=O)NCC(=O)N[C@@H](CCCN)C(=O)N[C@@H](CC(=O)O)C(=O)N[C@H](C)C(=O)N[C@@H](CC(=O)O)C(=O)NCC(=O)N[C@H](CO)C(=O)N[C@@H]([C@H](C)CC(=O)O)C(=O)N[C@@H](CC(=O)c2ccccc2N)C(=O)O[C@@H]1C', 'MIC', '0.5 µg/mL');

* * *

# System: Mycobacterium tuberculosis
# test: Antitubercular activity against Mycobacterium tuberculosis H37Rv ATCC 27294 measured after 7 days by broth microdilution method
# Assay type: functional
# statedConditions: H37Rv ATCC 27294, 168 h, time 7 day
measure: MIC

INSERT INTO assay_data (smilesstr, studytarget, measure, datavalue) VALUES
  ('Fc1ccc2[nH]c(-c3ccc(Nc4nc(-c5ccccc5)nc5ccccc45)cc3)nc2c1', 'Mycobacterium tuberculosis', 'MIC', '> 64 µg/mL'),
  ('c1ccc(-c2nc(Nc3ccc(-c4nc5ccccc5[nH]4)cc3)c3ccccc3n2)cc1', 'Mycobacterium tuberculosis', 'MIC', '> 64 µg/mL'),
  ('O=C(Nc1ccc2nc(-c3ccc(Br)cc3F)[nH]c2c1)c1ccc(Nc2nc(-c3ccccc3)nc3ccccc23)cc1', 'Mycobacterium tuberculosis', 'MIC', '> 64 µg/mL');
